target: NleB (Citrobacter rodentium)
Sequence (A0A482PDI9 whole entry, looked up): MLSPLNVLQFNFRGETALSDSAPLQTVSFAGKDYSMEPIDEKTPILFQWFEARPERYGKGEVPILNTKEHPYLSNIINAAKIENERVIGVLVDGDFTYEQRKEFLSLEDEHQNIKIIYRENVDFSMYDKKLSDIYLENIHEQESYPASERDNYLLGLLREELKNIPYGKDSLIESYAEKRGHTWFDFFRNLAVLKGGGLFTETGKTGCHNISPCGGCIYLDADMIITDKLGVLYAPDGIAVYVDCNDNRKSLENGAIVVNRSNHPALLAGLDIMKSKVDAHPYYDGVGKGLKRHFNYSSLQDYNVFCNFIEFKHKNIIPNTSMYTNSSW
measured endpoint: IC50

Exercise: // fetch NleB (Citrobacter rodentium) IC50 for "COCCn1c2c([n+](Cc3cnccn3)c1C)C(=O)c1ccccc1C2=O"
Solution: ~2000 nM

----------
target: SseK1 (Salmonella enterica, UniProt A0A0H3NK84)
Sequence (A0A0H3NK84 whole entry, looked up): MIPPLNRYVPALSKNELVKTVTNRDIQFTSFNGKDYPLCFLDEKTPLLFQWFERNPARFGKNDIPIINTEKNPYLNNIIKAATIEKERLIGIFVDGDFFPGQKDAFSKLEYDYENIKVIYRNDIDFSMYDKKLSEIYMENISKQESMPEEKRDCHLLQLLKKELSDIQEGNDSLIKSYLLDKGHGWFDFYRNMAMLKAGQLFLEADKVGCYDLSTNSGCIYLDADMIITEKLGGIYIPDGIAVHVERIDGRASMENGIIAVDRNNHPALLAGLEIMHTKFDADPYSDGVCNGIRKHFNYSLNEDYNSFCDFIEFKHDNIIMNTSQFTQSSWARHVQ
measured endpoint: IC50

Exercise: Give SseK1 (Salmonella enterica, UniProt A0A0H3NK84) IC50 for "COCCn1c2c([n+](Cc3cnccn3)c1C)C(=O)c1ccccc1C2=O"
Solution: ~2000 nM
